Experiment: APR_HepG2_NuclearSize_72hr: Apredica 72-hour HepG2 Assay for Nuclear Size (AID 2282925)
Conditions: high-content imaging, actives raise or lower the signal
Active and inactive are the calls of the source. Rule for the calls: active = hit-call score of the fitted dose curve at least 0.9, where 1 is the maximum; inactive = score below 0.9.
Your response should consist of one outcome taken from t (active), f (inactive)

For orientation, consider the following solved cases.
smiles-code | class
CN(Cc1cnc2nc(N)nc(N)c2n1)c1ccc(C(=O)N[C@@H](CCC(=O)O)C(=O)O)cc1 | f
CCCCC=O | f
N=C(N)c1ccc(OCCCCCOc2ccc(C(=N)N)cc2)cc1 | t

So what was the verdict on `Cc1[nH]nc2c1N=C(c1ccccc1Cl)c1cc([N+](=O)[O-])ccc1N2` in this test?
t

`O=C1NS(=O)(=O)c2ccccc21` , same question.
f

`CCCCCCCCCCCCCCC` , same question.
f

`CCCCCCCCCCCCOS(=O)(=O)O` , same question.
f
